The values you see were collected from patent US20240217926A1.

- PROTOCOL DESCRIPTION: Dissolubility (maximum dissolved concentration in organic solvents, by HPLC)
- Format: physicochemical
- CONDITION SUMMARY: methanol, 25° C.
MEASUREMENT TYPE: Dissolubility Methanol (% by mass)
The response must be a number in % by mass with no trailing unit.

Below: 3 molecules and their reported Dissolubility Methanol.
Sc1ccc2cc(S)ccc2c1: 0.11
Sc1ccc2c(S)cccc2c1: 19.3
Sc1cccc2c(S)cccc12: 1.08

Then there is this molecule:
State, in one line, measured Dissolubility Methanol of Sc1ccc2ccc(S)cc2c1
0.16
